test.description: Bidirectional transport across MDCK II cell monolayers
Format: in vitro ADME, canine
condition.info: dog, pH 7.4, cinobufotalin 20 μM
quantity.kind: Papp A→B at 120 min, 20 μM (×10⁻⁶ cm/s)

{"smiles.string": "CC(=O)O[C@H]1[C@H]2O[C@]23[C@@H]2CC[C@]4(O)C[C@@H](O)CC[C@]4(C)[C@H]2CC[C@]3(C)[C@H]1c1ccc(=O)oc1", "quantity.kind": "Papp A→B at 120 min, 20 μM", "reading": 33.8}

====

system.name: P-glycoprotein (P-gp) (Homo sapiens)
Construct: expressed in transfected cells; host or cells: MDCK II (Madin Darby canine kidney) cells stably transfected with the MDR1 gene
test.description: Bidirectional transport across MDCK-MDR1 cell monolayers
Format: in vitro ADME
condition.info: dog, pH 7.4, with verapamil (concentration not stated), in both compartments; MDCK-MDR1, cinobufotalin 20 μM, with verapamil; read-out: ER
quantity.kind: efflux ratio at 120 min, 20 μM

{"compound": "CC(=O)O[C@H]1[C@H]2O[C@]23[C@@H]2CC[C@]4(O)C[C@@H](O)CC[C@]4(C)[C@H]2CC[C@]3(C)[C@H]1c1ccc(=O)oc1 [Cinobufotalin]", "quantity.kind": "efflux ratio at 120 min, 20 μM", "reading": 1.1}

====

test.description: Pharmacokinetic study after i.v. injection in normal and DEN-injured rats
Type: in vivo, Sprague Dawley rats
condition.info: male, Sprague Dawley, rat, plasma, iv, 2.5 mg/kg, normal rats, i.v. 2.5 mg/kg, two-compartment model
quantity.kind: clearance (mL/min/kg)

{"molecule": "CC(=O)O[C@H]1[C@H]2O[C@]23[C@@H]2CC[C@]4(O)C[C@@H](O)CC[C@]4(C)[C@H]2CC[C@]3(C)[C@H]1c1ccc(=O)oc1 [Cinobufotalin]", "reading": 16.7}

====

test.description: Bidirectional transport across MDCK II cell monolayers
Type: in vitro ADME, canine
condition.info: dog, pH 7.4, cinobufotalin 20 μM, read-out: ER
Experimental: MDCK II and MDCK-MDR1 cells were seeded into 12-well Transwell polycarbonate membrane inserts (12 mm diameter inserts, 0.4 μm pore size, Corning Costar) at a density of 6 × 10^5 cells/well. […] At the end of the incubated period, aliquots of 100 μL were withdrawn from the donor compartment to calculated mass balance. […] The efflux ratio (ER) and net flux ratio were calculated according to Equations (5) and (6) as described in our previous research ([Sun et al., 2017]). […]
quantity.kind: efflux ratio at 120 min, 20 μM

{"compound": "CC(=O)O[C@H]1[C@H]2O[C@]23[C@@H]2CC[C@]4(O)C[C@@H](O)CC[C@]4(C)[C@H]2CC[C@]3(C)[C@H]1c1ccc(=O)oc1 [Cinobufotalin]", "reading": 1.1}

====

system.name: P-glycoprotein (P-gp) (Homo sapiens)
Construct: expressed in transfected cells; host or cells: MDCK II (Madin Darby canine kidney) cells stably transfected with the MDR1 gene
test.description: Bidirectional transport across MDCK-MDR1 cell monolayers
Assay type: in vitro ADME
condition.info: dog, pH 7.4; MDCK-MDR1, cinobufotalin 20 μM
quantity.kind: Papp B→A at 120 min, 20 μM (×10⁻⁶ cm/s)

{"smiles.string": "CC(=O)O[C@H]1[C@H]2O[C@]23[C@@H]2CC[C@]4(O)C[C@@H](O)CC[C@]4(C)[C@H]2CC[C@]3(C)[C@H]1c1ccc(=O)oc1", "system.name": "P-glycoprotein (P-gp) (Homo sapiens)", "reading": 42.4}

====

test.description: Liver distribution of cinobufotalin in normal and DEN-injured rats
Type: in vivo
condition.info: male, Sprague Dawley, rat, iv, 2.5 mg/kg, normal rats, i.v. 2.5 mg/kg, after the last sampling time point (24 h), read-out: concentration of cinobufotalin in liver tissues
Experimental: For PK studies, the rats were randomly divided into two experimental groups (10 rats for normal rats group and 20 rats for DEN-injured rats group, considering the animal casualties during the modeling process). HCC rat model was established by intraperitoneal administration of 50 mg/kg DEN two times per week ([Fuchs et al., 2014]), and the control group rats were treated with normal saline in the same way. […]
quantity.kind: concentration at 24 h (ng/mL)

{"compound": "CC(=O)O[C@H]1[C@H]2O[C@]23[C@@H]2CC[C@]4(O)C[C@@H](O)CC[C@]4(C)[C@H]2CC[C@]3(C)[C@H]1c1ccc(=O)oc1 [Cinobufotalin]", "reading": 39.3}

====

system.name: P-glycoprotein (P-gp) (Homo sapiens)
Construct: expressed in transfected cells; host or cells: MDCK II (Madin Darby canine kidney) cells stably transfected with the MDR1 gene
test.description: Bidirectional transport across MDCK-MDR1 cell monolayers
Format: in vitro ADME
condition.info: dog, pH 7.4; MDCK-MDR1, cinobufotalin 20 μM
quantity.kind: Papp A→B at 120 min, 20 μM (×10⁻⁶ cm/s)

{"smiles.string": "CC(=O)O[C@H]1[C@H]2O[C@]23[C@@H]2CC[C@]4(O)C[C@@H](O)CC[C@]4(C)[C@H]2CC[C@]3(C)[C@H]1c1ccc(=O)oc1", "system.name": "P-glycoprotein (P-gp) (Homo sapiens)", "scale.unit": "×10⁻⁶ cm/s", "reading": 19.4}

====

system.name: P-glycoprotein (P-gp) (Homo sapiens, UniProt P08183)
Construct: expressed in transfected cells; host or cells: MDCK II (Madin Darby canine kidney) cells stably transfected with the MDR1 gene
Sequence (P08183 whole entry): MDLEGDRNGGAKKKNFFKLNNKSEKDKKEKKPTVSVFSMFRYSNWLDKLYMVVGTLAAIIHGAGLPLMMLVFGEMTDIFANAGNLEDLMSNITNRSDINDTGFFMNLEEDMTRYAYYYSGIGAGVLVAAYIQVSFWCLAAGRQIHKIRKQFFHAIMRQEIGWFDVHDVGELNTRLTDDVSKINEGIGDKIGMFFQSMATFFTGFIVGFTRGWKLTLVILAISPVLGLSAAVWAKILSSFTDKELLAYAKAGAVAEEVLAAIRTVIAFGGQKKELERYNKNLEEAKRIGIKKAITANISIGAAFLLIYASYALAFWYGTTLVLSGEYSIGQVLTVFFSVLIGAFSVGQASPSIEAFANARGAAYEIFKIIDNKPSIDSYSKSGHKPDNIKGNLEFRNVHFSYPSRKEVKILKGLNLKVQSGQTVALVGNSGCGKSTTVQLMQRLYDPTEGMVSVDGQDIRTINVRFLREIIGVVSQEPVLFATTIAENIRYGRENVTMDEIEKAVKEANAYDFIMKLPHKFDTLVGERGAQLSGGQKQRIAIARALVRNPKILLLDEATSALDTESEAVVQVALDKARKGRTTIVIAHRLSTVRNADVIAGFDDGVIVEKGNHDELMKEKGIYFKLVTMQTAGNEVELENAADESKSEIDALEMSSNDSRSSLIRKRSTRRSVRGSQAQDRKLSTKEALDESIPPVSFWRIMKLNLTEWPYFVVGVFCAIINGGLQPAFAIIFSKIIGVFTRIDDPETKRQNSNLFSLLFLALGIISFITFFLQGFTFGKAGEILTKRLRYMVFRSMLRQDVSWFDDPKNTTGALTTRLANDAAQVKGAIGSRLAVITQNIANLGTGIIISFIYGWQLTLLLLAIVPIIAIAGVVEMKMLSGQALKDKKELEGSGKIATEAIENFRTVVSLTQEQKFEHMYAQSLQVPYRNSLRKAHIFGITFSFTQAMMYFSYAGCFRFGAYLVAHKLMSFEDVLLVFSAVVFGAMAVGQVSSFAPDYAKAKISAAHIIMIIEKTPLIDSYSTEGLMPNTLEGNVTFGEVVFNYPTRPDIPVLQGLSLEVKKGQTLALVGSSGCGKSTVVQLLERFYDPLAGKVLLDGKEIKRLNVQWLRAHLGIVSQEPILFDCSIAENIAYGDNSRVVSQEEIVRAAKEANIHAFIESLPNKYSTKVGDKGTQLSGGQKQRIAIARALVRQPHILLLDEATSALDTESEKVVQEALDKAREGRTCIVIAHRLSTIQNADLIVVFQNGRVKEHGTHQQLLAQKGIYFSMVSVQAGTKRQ
test.description: Bidirectional transport across MDCK-MDR1 cell monolayers
Type: in vitro ADME
condition.info: dog, pH 7.4, with verapamil (concentration not stated), in both compartments; MDCK-MDR1, cinobufotalin 20 μM, with verapamil
quantity.kind: Papp B→A at 120 min, 20 μM (×10⁻⁶ cm/s)

{"smiles.string": "CC(=O)O[C@H]1[C@H]2O[C@]23[C@@H]2CC[C@]4(O)C[C@@H](O)CC[C@]4(C)[C@H]2CC[C@]3(C)[C@H]1c1ccc(=O)oc1", "reading": 34.5}

====

test.description: Liver distribution of cinobufotalin in normal and DEN-injured rats
Format: in vivo
condition.info: male, Sprague Dawley, rat, iv, 2.5 mg/kg, DEN-injured rats, i.v. 2.5 mg/kg, after the last sampling time point (24 h), read-out: concentration of cinobufotalin in liver tissues

{"smiles.string": "CC(=O)O[C@H]1[C@H]2O[C@]23[C@@H]2CC[C@]4(O)C[C@@H](O)CC[C@]4(C)[C@H]2CC[C@]3(C)[C@H]1c1ccc(=O)oc1", "scale.unit": "ng/mL", "concentration at 24 h": 21}

====

test.description: Bidirectional transport across MDCK II cell monolayers
Type: in vitro ADME, canine
condition.info: dog, pH 7.4, cinobufotalin 20 μM

{"smiles.string": "CC(=O)O[C@H]1[C@H]2O[C@]23[C@@H]2CC[C@]4(O)C[C@@H](O)CC[C@]4(C)[C@H]2CC[C@]3(C)[C@H]1c1ccc(=O)oc1", "Papp B→A at 120 min, 20 μM, ×10⁻⁶ cm/s": 35.9}
